assay: Water solubility of core solvents; format: physicochemical
outcomeMeasure: solubility (mg/mL)
# number only, unit mg/mL dropped from output

Entry CC(=O)OCC(COC(C)=O)OC(C)=O [triacetin] has what solubility?
21.5
